Ref: ChEMBL document CHEMBL1123253

- measuredTarget: Renin (Homo sapiens)
- Sequence (P00797 whole entry): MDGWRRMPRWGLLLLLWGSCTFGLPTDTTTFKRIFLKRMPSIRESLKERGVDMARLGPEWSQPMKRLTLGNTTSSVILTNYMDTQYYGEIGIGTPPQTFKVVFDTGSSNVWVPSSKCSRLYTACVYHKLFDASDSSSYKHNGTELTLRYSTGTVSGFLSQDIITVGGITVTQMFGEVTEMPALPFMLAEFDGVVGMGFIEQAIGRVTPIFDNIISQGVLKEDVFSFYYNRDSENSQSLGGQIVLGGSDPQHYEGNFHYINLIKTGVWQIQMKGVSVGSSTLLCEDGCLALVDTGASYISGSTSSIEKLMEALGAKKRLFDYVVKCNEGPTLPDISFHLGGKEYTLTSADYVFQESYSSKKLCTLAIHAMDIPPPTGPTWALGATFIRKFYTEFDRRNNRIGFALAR
- assayName: Inhibition of human plasma renin
Non-standard residues stand in square brackets, D forms with d. Residues, ends and D or L forms follow the SMILES beside them. *: point of attachment. Sta = CC(C)C[C@H](N)[C@@H](O)CC(=O)O; NMeH = CN[C@@H](Cc1c[nH]cn1)C(=O)O; NHCH2(2-pyridyl) = c1ccc(CN*)nc1; NMeF = CN[C@@H](Cc1ccccc1)C(=O)O; Boc = CC(C)(C)OC(=O)*
# reported IC50; entries follow
Quick note: unit goes after the number.

molecule	IC50
CC[C@H](C)[C@H](NC(=O)[C@@H](NC[C@H](CC(C)C)NC(=O)[C@H](Cc1c[nH]cn1)N(C)C(=O)[C@H](Cc1ccccc1)NC(=O)[C@@H]1CCCN1C(=O)OC(C)(C)C)C(C)C)C(=O)NCc1ccccn1	68 nM
CC[C@H](C)[C@H](NC(=O)C[C@H](O)[C@H](CC(C)C)NC(=O)[C@H](Cc1c[nH]cn1)N(C)C(=O)[C@H](Cc1ccccc1)NC(=O)[C@@H]1CCCN1C(=O)OC(C)(C)C)C(=O)NCc1ccccn1 (Boc-PF[NMeH][Sta]I-{NHCH2(2-pyridyl)})	190 nM
CC[C@H](C)[C@H](NC(=O)C[C@H](O)[C@H](CC(C)C)NC(=O)[C@H](Cc1c[nH]cn1)NC(=O)[C@H](Cc1ccccc1)N(C)C(=O)OC(C)(C)C)C(=O)NCc1ccccn1 (Boc-[NMeF]H[Sta]I-{NHCH2(2-pyridyl)})	720 nM

// returns reported IC50 for input `CC[C@H](C)[C@H](NC(=O)[C@@H](NC[C@H](CC(C)C)NC(=O)[C@H](Cc1c[nH]cn1)N(C)C(=O)[C@H](Cc1ccccc1)NC(=O)OC(C)(C)C)C(C)C)C(=O)NCc1ccccn1`
450 nM
